# Test system: 242566-281-R-J2-PDC complex spheroid viability
# test-name: Anticancer human tumor 242566-281-R-J2-PDC patient-derived pancreatic carcinoma cell line growth inhibition [RAS]
# conditions: second compound 0.01 µM; first compound 1 µM; active compounds read low
measured-endpoint: viability, T/C (%)
Please respond with the number in % and leave the unit unwritten.

Q. Bench note: what viability, T/C did NC1c2ccccc2OC12CCN(c1cnc3c(N4CCCc5ncccc54)n[nH]c3n1)CC2 (centres undefined) + C=CC(=O)N1CCN(c2nc(OCC3CCCN3C)nc3c(F)c(-c4nc(N)cc(C)c4C(F)(F)F)c(Cl)cc23)C(C)C1 show?
A. 72.2

Q. Bench note: what viability, T/C did CC(Nc1ccc2c(c1)OCCn1cc(N3C(=O)OCC3C(F)F)nc1-2)C(N)=O (centres undefined) + C=CC(=O)N1CCN(c2nc(OCC3CCCN3C)nc3c(F)c(-c4nc(N)cc(C)c4C(F)(F)F)c(Cl)cc23)C(C)C1 show?
A. 48.3

Q. Bench note: what viability, T/C did CC(=O)OC12COC1CC(O)C1(C)C(=O)C(O)C3=C(C)C(OC(=O)C(O)C(NC(=O)OC(C)(C)C)c4ccccc4)CC(O)(C(OC(=O)c4ccccc4)C21)C3(C)C (centres undefined) + C=CC(=O)N1CCN(c2nc(OCC3CCCN3C)nc3c(F)c(-c4nc(N)cc(C)c4C(F)(F)F)c(Cl)cc23)C(C)C1 show?
A. 41.8

Continuing:
Q. Bench note: what viability, T/C did CCN1CCN(Cc2ccc(Nc3ncc(F)c(-c4cc(F)c5nc(C)n(C(C)C)c5c4)n3)nc2)CC1 + C=CC(=O)N1CCN(c2nc(OCC3CCCN3C)nc3c(F)c(-c4nc(N)cc(C)c4C(F)(F)F)c(Cl)cc23)C(C)C1 show?
A. 154

----------
viability, T/C: recorded values
# Test system: 242566-281-R-J2-PDC complex spheroid viability
# test-name: Anticancer human tumor 242566-281-R-J2-PDC cell line growth inhibition [RAS];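 further: spheroids exposed to compound for 7 days before readout; 100% = DMSO vehicle control wells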
# conditions: second compound 0.00949 µM; first compound 1 µM; active compounds read low
Please respond with the number in % and leave the unit unwritten.

Worked cases, viability, T/C given:
Q. Bench note: what viability, T/C did C=CC(=O)N1CCN(c2nc(OCC3CCCN3C)nc3c(F)c(-c4nc(N)cc(C)c4C(F)(F)F)c(Cl)cc23)C(C)C1 (stereo not given) + CCn1c(-c2cccnc2C(C)OC)c2c3cc(ccc31)N1CCOC(CC(NC(=O)C(C(C)C)N(C)C(=O)C3(F)CCN(C(=O)C#CC(C)(C)N(C)C)CC3)C(=O)N3CCCC(N3)C(=O)OCC(C)(C)C2)C1 show?
A. 83.9

Q. Bench note: what viability, T/C did CC(=O)OC12COC1CC(O)C1(C)C(=O)C(O)C3=C(C)C(OC(=O)C(O)C(NC(=O)OC(C)(C)C)c4ccccc4)CC(O)(C(OC(=O)c4ccccc4)C21)C3(C)C (stereo not given) + CCn1c(-c2cc(N3CCN(C)CC3)cnc2C(C)OC)c2c3cc(ccc31)-c1csc(n1)CC(NC(=O)C1CC1C)C(=O)N1CCCC(N1)C(=O)OCC(C)(C)C2 show?
A. 20.2

Q. Bench note: what viability, T/C did C[C@@H](NC(=O)c1ncnc(N)c1Cl)c1ncc(C(=O)Nc2cc(C(F)(F)F)c(Cl)cn2)s1 + CCn1c(-c2cc(N3CCN(C)CC3)cnc2C(C)OC)c2c3cc(ccc31)-c1csc(n1)CC(NC(=O)C1CC1C)C(=O)N1CCCC(N1)C(=O)OCC(C)(C)C2 show?
A. 63.3

Q. Bench note: what viability, T/C did CCC(CC)c1cc(NC2CCC(N)C2)n2nccc2n1 (stereo not given) + CCn1c(-c2cc(N3CCN(C)CC3)cnc2C(C)OC)c2c3cc(ccc31)-c1csc(n1)CC(NC(=O)C1CC1C)C(=O)N1CCCC(N1)C(=O)OCC(C)(C)C2 show?
A. 45.8

Q. Bench note: what viability, T/C did CC(Nc1ccc2c(c1)OCCn1cc(N3C(=O)OCC3C(F)F)nc1-2)C(N)=O (stereo not given) + CCn1c(-c2cccnc2C(C)OC)c2c3cc(ccc31)N1CCOC(CC(NC(=O)C(C(C)C)N(C)C(=O)C3(F)CCN(C(=O)C#CC(C)(C)N(C)C)CC3)C(=O)N3CCCC(N3)C(=O)OCC(C)(C)C2)C1 show?
A. 54

Please look at the following compound next.
Q. Bench note: what viability, T/C did CC(C)NCC(C(=O)N1CCN(c2ncnc3c2C(C)CC3O)CC1)c1ccc(Cl)cc1 (stereo not given) + CCn1c(-c2cc(N3CCN(C)CC3)cnc2C(C)OC)c2c3cc(ccc31)-c1csc(n1)CC(NC(=O)C1CC1C)C(=O)N1CCCC(N1)C(=O)OCC(C)(C)C2 show?
A. 41.5

----------
viability, T/C: recorded values
# Test system: 242566-281-R-J2-PDC complex spheroid viability
# test-name: Anticancer human tumor 242566-281-R-J2-PDC cell line growth inhibition [RAS];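 further: spheroids exposed to compound for 7 days before readout; 100% = DMSO vehicle control wells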
# conditions: compound 0.1 µM; active compounds read low

Worked cases, viability, T/C given:
Q. Bench note: what viability, T/C did Nc1ccn(C2OC(CO)C(O)C2(F)F)c(=O)n1 (stereo unspecified) show?
A. 49.9% [middle of 4 runs]

Q. Bench note: what viability, T/C did CCC(CC)c1cc(NC2CCC(N)C2)n2nccc2n1 (stereo unspecified) show?
A. 119% [middle of 4 runs]

Q. Bench note: what viability, T/C did C=CC(=O)N1CCN(c2nc(OCC3CCCN3C)nc3c(F)c(-c4nc(N)cc(C)c4C(F)(F)F)c(Cl)cc23)C(C)C1 (stereo unspecified) show?
A. 100% [middle of 12 runs]

Q. Bench note: what viability, T/C did CC(Nc1ccc2c(c1)OCCn1cc(N3C(=O)OCC3C(F)F)nc1-2)C(N)=O (stereo unspecified) show?
A. 99.7% [middle of 4 runs]

Q. Bench note: what viability, T/C did C[C@@H](NC(=O)c1ncnc(N)c1Cl)c1ncc(C(=O)Nc2cc(C(F)(F)F)c(Cl)cn2)s1 show?
A. 114% [middle of 4 runs]

Please look at the following compound next.
Q. Bench note: what viability, T/C did CC(C)n1nc(-c2ccc3oc(N)nc3c2)c2c(N)ncnc21 show?
A. 60.3% [middle of 4 runs]

----------
viability, T/C: recorded values
# System: 242566-281-R-J2-PDC complex spheroid viability
# test-name: Anticancer human tumor 242566-281-R-J2-PDC cell line growth inhibition [RAS];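 further: spheroids exposed to compound for 7 days before readout; 100% = DMSO vehicle control wells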
# conditions: second compound 0.000949 µM; first compound 0.1 µM; active compounds read low

Q. Bench note: what viability, T/C did CC(=O)OC12COC1CC(O)C1(C)C(=O)C(O)C3=C(C)C(OC(=O)C(O)C(NC(=O)OC(C)(C)C)c4ccccc4)CC(O)(C(OC(=O)c4ccccc4)C21)C3(C)C (centres undefined) + CCn1c(-c2cc(N3CCN(C)CC3)cnc2C(C)OC)c2c3cc(ccc31)-c1csc(n1)CC(NC(=O)C1CC1C)C(=O)N1CCCC(N1)C(=O)OCC(C)(C)C2 show?
A. 32.3%

Q. Bench note: what viability, T/C did CC(C)n1nc(-c2ccc3oc(N)nc3c2)c2c(N)ncnc21 + CCn1c(-c2cccnc2C(C)OC)c2c3cc(ccc31)N1CCOC(CC(NC(=O)C(C(C)C)N(C)C(=O)C3(F)CCN(C(=O)C#CC(C)(C)N(C)C)CC3)C(=O)N3CCCC(N3)C(=O)OCC(C)(C)C2)C1 show?
A. 30.4%

Q. Bench note: what viability, T/C did Nc1ccn(C2OC(CO)C(O)C2(F)F)c(=O)n1 (centres undefined) + CCn1c(-c2cccnc2C(C)OC)c2c3cc(ccc31)N1CCOC(CC(NC(=O)C(C(C)C)N(C)C(=O)C3(F)CCN(C(=O)C#CC(C)(C)N(C)C)CC3)C(=O)N3CCCC(N3)C(=O)OCC(C)(C)C2)C1 show?
A. 45.3%

Q. Bench note: what viability, T/C did CCC(CC)c1cc(NC2CCC(N)C2)n2nccc2n1 (centres undefined) + CCn1c(-c2cc(N3CCN(C)CC3)cnc2C(C)OC)c2c3cc(ccc31)-c1csc(n1)CC(NC(=O)C1CC1C)C(=O)N1CCCC(N1)C(=O)OCC(C)(C)C2 show?
A. 88.3%

----------
# Tested on: 242566-281-R-J2-PDC complex spheroid viability
# test-name: Anticancer human tumor 242566-281-R-J2-PDC cell line growth inhibition [RAS];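 further: spheroids exposed to compound for 7 days before readout; 100% = DMSO vehicle control wells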
# conditions: second compound 0.1 µM; first compound 0.1 µM; active compounds read low
measured-endpoint: viability, T/C (%)
Please respond with the number in % and leave the unit unwritten.

Worked cases, viability, T/C given:
Q. Fill in the recorded viability, T/C for this compound, with 242566-281-R-J2-PDC complex spheroid viability as test system: Cc1nc(N2CCC3(CC2)COC(C)C3N)c(CO)nc1Sc1ccnc(N)c1Cl (centres undefined) + C#Cc1c(F)ccc2cc(O)cc(-c3ncc4c(N5CC6CCC(C5)N6)nc(OCC56CCCN5CC(F)C6)nc4c3F)c12
A. 65.8

Q. Fill in the recorded viability, T/C for this compound, with 242566-281-R-J2-PDC complex spheroid viability as test system: Nc1ccn(C2OC(CO)C(O)C2(F)F)c(=O)n1 (centres undefined) + C#Cc1c(F)ccc2cc(O)cc(-c3ncc4c(N5CC6CCC(C5)N6)nc(OCC56CCCN5CC(F)C6)nc4c3F)c12
A. 54.7

Q. Fill in the recorded viability, T/C for this compound, with 242566-281-R-J2-PDC complex spheroid viability as test system: Cc1nc(N2CCC3(CC2)COC(C)C3N)c(CO)nc1Sc1ccnc(N)c1Cl (centres undefined) + C=CC(=O)N1CCN(c2nc(OCC3CCCN3C)nc3c(F)c(-c4nc(N)cc(C)c4C(F)(F)F)c(Cl)cc23)C(C)C1
A. 119

Please look at the following compound next.
Q. Fill in the recorded viability, T/C for this compound, with 242566-281-R-J2-PDC complex spheroid viability as test system: CC1(O)CCCC1n1c(=O)c(C(F)F)cc2cnc(NC3CCN(S(C)(=O)=O)CC3)nc21 (centres undefined) + C=CC(=O)N1CCN(c2nc(OCC3CCCN3C)nc3c(F)c(-c4nc(N)cc(C)c4C(F)(F)F)c(Cl)cc23)C(C)C1
A. 104
